tested target: purified DHFR of strain 157/4696 of Staphylococcus aureus (Staphylococcus aureus)
Sequence (P13955 whole entry): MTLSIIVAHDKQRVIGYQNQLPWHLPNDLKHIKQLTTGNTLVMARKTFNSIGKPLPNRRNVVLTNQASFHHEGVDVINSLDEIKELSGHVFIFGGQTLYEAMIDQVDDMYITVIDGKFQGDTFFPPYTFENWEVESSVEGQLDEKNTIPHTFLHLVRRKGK
experiment summary: biochemical
setup conditions: Table 2; IC50 against purified DHFR of strain 157/4696 (highly trimethoprim-resistant; clinical isolate); read-out: DHFR Sa1
Reported IC50 values for a set of compounds
Write the answer as a number in nM, unit excluded.

Worked cases, IC50 given:
>>> print(df.to_string())
                                   compound  readout_number
0  CCOc1cc(Cc2cnc(N)nc2N)cc(OS(=O)(=O)CC2CC2)c1-c1ccc(N)c(F)c1             220
1  CCOc1cc(Cc2cnc(N)nc2N)cc(OCC)c1-c1ccc(CN2CCOCC2)c(N)c1             850
2  CCCS(=O)(=O)Oc1cc(Cc2cnc(N)nc2N)cc(OCC)c1-c1ccc(CN2CCOCC2)c(N)c1             120
3  CCOc1cc(Cc2cnc(N)nc2N)cc(OS(=O)(=O)CC2CC2)c1-c1ccc(CN2CCOCC2)c(N)c1             240
4  CCCS(=O)(=O)Oc1cc(Cc2cnc(N)nc2N)cc(OCC)c1-c1ccc(N)c(C)c1             160

# returns recorded IC50 (system: purified DHFR of strain 157/4696 of Staphylococcus aureus (Staphylococcus aureus)) for `CCCS(=O)(=O)Oc1cc(Cc2cnc(N)nc2N)cc(OCC)c1-c1ccc(CN(C)C)c(N)c1`
68

# returns recorded IC50 (system: purified DHFR of strain 157/4696 of Staphylococcus aureus (Staphylococcus aureus)) for `CCOc1cc(Cc2cnc(N)nc2N)cc(OS(=O)(=O)C(C)C)c1-c1cc(N)cc(F)c1`
100

# returns recorded IC50 (system: purified DHFR of strain 157/4696 of Staphylococcus aureus (Staphylococcus aureus)) for `CCCS(=O)(=O)Oc1cc(Cc2cnc(N)nc2N)cc(OCC)c1-c1ccc(OC)c(N)c1`
140

# returns recorded IC50 (system: purified DHFR of strain 157/4696 of Staphylococcus aureus (Staphylococcus aureus)) for `CCCS(=O)(=O)Oc1cc(Cc2cnc(N)nc2N)cc(OCC)c1-c1ccc(N)c(F)c1`
280

# returns recorded IC50 (system: purified DHFR of strain 157/4696 of Staphylococcus aureus (Staphylococcus aureus)) for CCOc1cc(Cc2cnc(N)nc2N)cc(O[C@@H]2CCC[C@H]2CC#N)c1-c1ccc(O)cc1 (racemic)
1800
